B1: EHMT1 (parent)
chain: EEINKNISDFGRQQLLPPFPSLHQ

# Variants of: B1
# measurement description: protein stability index of a GFP-peptide fusion (GPS, HEK-293T) (PSI 1-6); higher = more stable;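 also: lentivirally expressed fusions sorted by FACS into six bins by GFP to DsRed ratio, PSI derived from sequencing read proportions per bin multiplied by bin number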
# experimental parameters: c terminus: a fixed tail appended
Label TRUE for high-side protein stability index (at or above 3) and FALSE for low-side protein stability index (below it).

| seq text | class name |
| --- | --- |
| EEINFNISDFGRQQLLPPFPSLHQ [K5F] | FALSE |
| EEINKNISDFGRQQLLPPFPSLLQ [H23L] | FALSE |
| EEINKNISDFGRQQLHPPFPSLHQ [L16H] | TRUE |
| EEINKNISDFGRQQLLPPFFSLHQ [P20F] | FALSE |
| EEINKNISDFGRQQMLPPFPSLHQ [L15M] | FALSE |
| EEINKNISDFGRQKLLPPFPSLHQ [Q14K] | FALSE |
| EEINKNISDFGRQQLLPPFPSLFQ [H23F] | FALSE |
| EEINKNISDFGRQQLLPPFPSLHY [Q24Y] | FALSE |
| EEINKNISDFGRQQLLPPFNSLHQ [P20N] | TRUE |
| EEINMNISDFGRQQLLPPFPSLHQ [K5M] | TRUE |
| EEINKNISDFYRQQLLPPFPSLHQ [G11Y] | FALSE |
| EEINKNWSDFGRQQLLPPFPSLHQ [I7W] | FALSE |
| EEINKNISDFGRQQLLPVFPSLHQ [P18V] | TRUE |
| EEINKNISDFGRQQLLEPFPSLHQ [P17E] | TRUE |
| EEIMKNISDFGRQQLLPPFPSLHQ [N4M] | FALSE |
| EEINKNISDFGRQWLLPPFPSLHQ [Q14W] | FALSE |
| EEINLNISDFGRQQLLPPFPSLHQ [K5L] | FALSE |
| EYINKNISDFGRQQLLPPFPSLHQ [E2Y] | FALSE |
| EEINKNISDFGRQRLLPPFPSLHQ [Q14R] | FALSE |
| EEININISDFGRQQLLPPFPSLHQ [K5I] | FALSE |
| EEINKVISDFGRQQLLPPFPSLHQ [N6V] | FALSE |
| EEINKNISDFGRQQLLPPFPSLGQ [H23G] | TRUE |
| EEINKNISLFGRQQLLPPFPSLHQ [D9L] | FALSE |
| EEINKNISDFGRQQLLPPFPSMHQ [L22M] | TRUE |
| EEINKNISDFGRQQLLPPFPPLHQ [S21P] | TRUE |
| EEINKNISDFQRQQLLPPFPSLHQ [G11Q] | TRUE |
| EEINNNISDFGRQQLLPPFPSLHQ [K5N] | TRUE |
| EEINKNISDFGRQQLLPPFGSLHQ [P20G] | TRUE |
| EEINKNISDFGEQQLLPPFPSLHQ [R12E] | TRUE |
| EEINKNISDFGRQQLLSPFPSLHQ [P17S] | TRUE |
| EEINKNISDFGVQQLLPPFPSLHQ [R12V] | TRUE |
| EEINKNISDFGRQQLYPPFPSLHQ [L16Y] | FALSE |
| EEINKYISDFGRQQLLPPFPSLHQ [N6Y] | FALSE |
| EEPNKNISDFGRQQLLPPFPSLHQ [I3P] | FALSE |
| QEINKNISDFGRQQLLPPFPSLHQ [E1Q] | FALSE |
| EEINKNISDTGRQQLLPPFPSLHQ [F10T] | FALSE |
| EEINKNISDFGRQQDLPPFPSLHQ [L15D] | TRUE |
| EEINKNISDFGRQQLLPPFPSDHQ [L22D] | TRUE |
| EEINKNISDFGRQQLLTPFPSLHQ [P17T] | FALSE |
| EEINKNNSDFGRQQLLPPFPSLHQ [I7N] | TRUE |
| EEINKNISKFGRQQLLPPFPSLHQ [D9K] | FALSE |
| EEHNKNISDFGRQQLLPPFPSLHQ [I3H] | FALSE |
| EEINKNISDFGRQQLLPPFYSLHQ [P20Y] | FALSE |
| EEINVNISDFGRQQLLPPFPSLHQ [K5V] | FALSE |
| EEINKNISDFGRQQLLDPFPSLHQ [P17D] | FALSE |
| NEINKNISDFGRQQLLPPFPSLHQ [E1N] | FALSE |
| EEINKNISCFGRQQLLPPFPSLHQ [D9C] | FALSE |
| EEINTNISDFGRQQLLPPFPSLHQ [K5T] | TRUE |
| EEINKNISDFGRQQLLPPLPSLHQ [F19L] | TRUE |
| EEINKNISDFGCQQLLPPFPSLHQ [R12C] | FALSE |
| EEINKNISDFGRQQLLPPFPWLHQ [S21W] | FALSE |
| EEINKNISDFGRQQLLPPFISLHQ [P20I] | FALSE |
| EEINKNICDFGRQQLLPPFPSLHQ [S8C] | FALSE |
| VEINKNISDFGRQQLLPPFPSLHQ [E1V] | FALSE |
| EEINKNISDFGRQQWLPPFPSLHQ [L15W] | FALSE |
| EEINKNESDFGRQQLLPPFPSLHQ [I7E] | TRUE |
| EEIIKNISDFGRQQLLPPFPSLHQ [N4I] | FALSE |
| EEIGKNISDFGRQQLLPPFPSLHQ [N4G] | FALSE |
| EEINKNIHDFGRQQLLPPFPSLHQ [S8H] | FALSE |
| EEISKNISDFGRQQLLPPFPSLHQ [N4S] | FALSE |
| EEIEKNISDFGRQQLLPPFPSLHQ [N4E] | FALSE |
| EEINKNISDFGRQQLPPPFPSLHQ [L16P] | TRUE |
| EEWNKNISDFGRQQLLPPFPSLHQ [I3W] | FALSE |
| EEINKNISDFGRQQLLPPFHSLHQ [P20H] | FALSE |
| EEINKNISDFGRQQCLPPFPSLHQ [L15C] | FALSE |
| EEINKNISDFGRQQLLPPFPSIHQ [L22I] | TRUE |
| KEINKNISDFGRQQLLPPFPSLHQ [E1K] | FALSE |
